target: Rev responsive element (RRE) RNA; experiment: Dissociation constant of compound with Rev-responsive element (RRE) IIB RNA was determined by the competition assay
quantity_name: pKd
A value of pKd is the negative decimal logarithm of a concentration given in moles per litre.

IN: Report pKd for "CC(=O)N(CCNC(=O)NCC(=O)O)CC(=O)N[C@H](C)C(=O)N[C@@H](CCCNC(=N)N)C(=O)N[C@@H](CCCNC(=N)N)C(=O)N[C@@H](CC(N)=O)C(=O)N[C@@H](CCCNC(=N)N)C(=O)N[C@@H](CCCNC(=N)N)C(=O)N[C@@H](CCCNC(=N)N)C(=O)N[C@@H](CCCNC(=N)N)C(=O)N[C@@H](Cc1c[nH]c2ccccc12)C(=O)N[C@@H](CCCNC(=N)N)C(=O)N[C@@H](CCC(=O)O)C(=O)N[C@@H](CCCNC(=N)N)C(=O)N[C@@H](CCC(N)=O)C(=O)N[C@H](CCCNC(=N)N)C(N)=O" please.
OUT: 7.36

IN: Item under review: "C[C@H](NC(=O)CN(CCNC(=O)CCC(=O)O)C(=O)Cn1ccc(N)nc1=O)C(=O)N[C@@H](CCCNC(=N)N)C(=O)N[C@@H](CCCNC(=N)N)C(=O)N[C@@H](CC(N)=O)C(=O)N[C@@H](CCCNC(=N)N)C(=O)N[C@@H](CCCNC(=N)N)C(=O)N[C@@H](CCCNC(=N)N)C(=O)N[C@@H](CCCNC(=N)N)C(=O)N[C@@H](Cc1c[nH]c2ccccc12)C(=O)N[C@@H](CCCNC(=N)N)C(=O)N[C@@H](CCC(=O)O)C(=O)N[C@@H](CCCNC(=N)N)C(=O)N[C@@H](CCC(N)=O)C(=O)N[C@H](CCCNC(=N)N)C(N)=O" . Reported pKd?
OUT: 7.51

IN: State the recorded pKd for this entry: "C[C@H](NC(=O)CN(CCNC(=O)CCC(=O)O)C(=O)Cn1cnc2c(=O)[nH]c(N)nc21)C(=O)N[C@@H](CCCNC(=N)N)C(=O)N[C@@H](CCCNC(=N)N)C(=O)N[C@@H](CC(N)=O)C(=O)N[C@@H](CCCNC(=N)N)C(=O)N[C@@H](CCCNC(=N)N)C(=O)N[C@@H](CCCNC(=N)N)C(=O)N[C@@H](CCCNC(=N)N)C(=O)N[C@@H](Cc1c[nH]c2ccccc12)C(=O)N[C@@H](CCCNC(=N)N)C(=O)N[C@@H](CCC(=O)O)C(=O)N[C@@H](CCCNC(=N)N)C(=O)N[C@@H](CCC(N)=O)C(=O)N[C@H](CCCNC(=N)N)C(N)=O"
OUT: 7.52

IN: Requested read-out: pKd. Entry: "Cc1cn(CC(=O)N(CCNC(=O)CCC(=O)O)CC(=O)N[C@@H](C)C(=O)N[C@@H](CCCNC(=N)N)C(=O)N[C@@H](CCCNC(=N)N)C(=O)N[C@@H](CC(N)=O)C(=O)N[C@@H](CCCNC(=N)N)C(=O)N[C@@H](CCCNC(=N)N)C(=O)N[C@@H](CCCNC(=N)N)C(=O)N[C@@H](CCCNC(=N)N)C(=O)N[C@@H](Cc2c[nH]c3ccccc23)C(=O)N[C@@H](CCCNC(=N)N)C(=O)N[C@@H](CCC(=O)O)C(=O)N[C@@H](CCCNC(=N)N)C(=O)N[C@@H](CCC(N)=O)C(=O)N[C@H](CCCNC(=N)N)C(N)=O)c(=O)[nH]c1=O"
OUT: 7.41

IN: Need pKd, item "C[C@H](NC(=O)CCC(=O)O)C(=O)N[C@@H](CCCNC(=N)N)C(=O)N[C@@H](CCCNC(=N)N)C(=O)N[C@@H](CC(N)=O)C(=O)N[C@@H](CCCNC(=N)N)C(=O)N[C@@H](CCCNC(=N)N)C(=O)N[C@@H](CCCNC(=N)N)C(=O)N[C@@H](CCCNC(=N)N)C(=O)N[C@@H](Cc1c[nH]c2ccccc12)C(=O)N[C@@H](CCCNC(=N)N)C(=O)N[C@@H](CCC(=O)O)C(=O)N[C@@H](CCCNC(=N)N)C(=O)N[C@@H](CCC(N)=O)C(=O)N[C@H](CCCNC(=N)N)C(N)=O"
OUT: 7.07
